# assay-system: Fes (UniProt P07332)
# Sequence (P07332 whole entry, looked up): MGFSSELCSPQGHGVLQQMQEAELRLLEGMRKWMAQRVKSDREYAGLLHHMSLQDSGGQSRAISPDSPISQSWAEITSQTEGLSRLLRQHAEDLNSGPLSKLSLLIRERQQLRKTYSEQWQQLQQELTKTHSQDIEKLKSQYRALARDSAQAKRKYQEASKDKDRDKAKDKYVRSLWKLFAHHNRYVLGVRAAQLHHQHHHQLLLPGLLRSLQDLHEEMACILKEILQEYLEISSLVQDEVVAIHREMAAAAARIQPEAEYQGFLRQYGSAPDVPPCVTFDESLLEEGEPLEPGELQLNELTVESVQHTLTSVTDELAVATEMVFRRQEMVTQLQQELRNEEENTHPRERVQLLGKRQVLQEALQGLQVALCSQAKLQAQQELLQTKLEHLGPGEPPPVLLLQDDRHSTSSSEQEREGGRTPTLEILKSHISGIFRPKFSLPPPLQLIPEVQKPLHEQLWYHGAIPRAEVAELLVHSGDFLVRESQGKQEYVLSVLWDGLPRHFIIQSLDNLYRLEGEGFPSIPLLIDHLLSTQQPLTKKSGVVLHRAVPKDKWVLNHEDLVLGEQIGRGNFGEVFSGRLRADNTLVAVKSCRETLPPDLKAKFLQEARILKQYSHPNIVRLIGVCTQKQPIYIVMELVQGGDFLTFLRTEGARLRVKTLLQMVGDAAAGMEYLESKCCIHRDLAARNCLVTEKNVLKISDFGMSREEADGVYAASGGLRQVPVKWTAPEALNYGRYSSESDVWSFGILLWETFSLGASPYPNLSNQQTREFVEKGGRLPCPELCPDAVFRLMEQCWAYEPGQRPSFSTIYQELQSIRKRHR
# assay-method-text: phosphorylation enrichment, bacterial display (enrichment ratio); higher = better substrate or ligand; peptides without Tyr show the background;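 also: 11-residue human phosphosite peptides and single-mutation variants displayed on the E. coli surface, counted by deep sequencing, each peptide's frequency after selection divided by its frequency in the unselected input library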;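 also: frequency after pTyr selection over input frequency; kinase dosed for 20-30% of maximal phosphorylation in three min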
metric-name: phosphorylation enrichment
# output: bare number, no unit

[ask] Quote phosphorylation enrichment reported for RDLTHYLMKIL [ACTG1_Y188_D187H] please.
[reply] 1.12

[ask] Quote phosphorylation enrichment reported for GLGGGYGGASG [KRT8_Y54] please.
[reply] 0.534

====

Listing of recorded phosphorylation enrichment by entry.
# Test system: c-Src
# assay-method-text: phosphorylation enrichment, bacterial display (enrichment ratio); higher = better substrate or ligand; peptides without Tyr show the background
# output: bare number, no unit

Some solved cases for reference:
{"columns": ["construct-sequence", "measured-value"],
 "data": [
  ["PLDGEYFTLHI [TP53_Y327_Q331H]", 2.97],
  ["CRAVKYLQMVD [AVPR2_Y117_G122D]", 0.318],
  ["PLQHVYKIGGI [EEF1A2_Y254_D252H]", 0.959]
]}

[ask] Quote phosphorylation enrichment reported for PTTKSYFPHFD [HBA1_Y43_T42S] please.
[reply] 0.498

[ask] Quote phosphorylation enrichment reported for FAKTQYPDVYA [CRX_Y63] please.
[reply] 0.486

[ask] Quote phosphorylation enrichment reported for RFLRGYRQYAY [HLA-A_Y137_D140Y] please.
[reply] 1.56

[ask] Quote phosphorylation enrichment reported for VPEANYTSDEE [STK33_Y439_D436E] please.
[reply] 0.614

[ask] Quote phosphorylation enrichment reported for `ENAGFYFRVSA` please.
[reply] 0.324

[ask] Quote phosphorylation enrichment reported for ETKKQYDSFTY [TMED3_Y85] please.
[reply] 0.604

[ask] Quote phosphorylation enrichment reported for GFAIVYGTIIL [GPR179_Y460] please.
[reply] 0.462

====

Listing of recorded phosphorylation enrichment by entry.
# Test system: AncSZ
# assay-method-text: phosphorylation enrichment, bacterial display (enrichment ratio); higher = better substrate or ligand; peptides without Tyr show the background
# output: bare number, no unit

{"columns": ["construct-sequence", "assay-system", "metric-name", "measured-value"],
 "data": [
  ["QEGPEYWDLET [HLA-A_Y83_Q86L]", "AncSZ", "phosphorylation enrichment", 2.76],
  ["QMVDMYASSYM [AVPR2_Y124_G122D]", "AncSZ", "phosphorylation enrichment", 1.22],
  ["LSIQTYSALNF [DES_Y423_P419S]", "AncSZ", "phosphorylation enrichment", 1.58],
  ["SQSPHYFRSGQ [GPATCH8_Y1038_R1043Q]", "AncSZ", "phosphorylation enrichment", 0.551],
  ["PLQHVYKIGGI [EEF1A2_Y254_D252H]", "AncSZ", "phosphorylation enrichment", 0.964]
]}

[ask] Quote phosphorylation enrichment reported for SKLTIYDGRPS [MTM1_Y277_A279G] please.
[reply] 0.713

[ask] Quote phosphorylation enrichment reported for DYYDLYGGEKK [PTPN11_Y66_F71K] please.
[reply] 2.84

[ask] Quote phosphorylation enrichment reported for LKSEMYQKLFK [RGS13_Y146_L150F] please.
[reply] 1.02

[ask] Quote phosphorylation enrichment reported for RQQQDYWLKDV [ANPEP_Y600_I603K] please.
[reply] 1.07

[ask] Quote phosphorylation enrichment reported for KLQKKYGPISS [CYP17A1_Y60_Y64S] please.
[reply] 0.381
